# study-target: the molecule itself
# procedure-text: SEC
measurement-kind: binding result

Take a look at these entries with their results.
protein: PCNA-K13E (natural protein, S. cerevisiae, biotinylated when bound to the SPR chip (site not stated)) MLEAKFEEASLFERIIDGFKDCVQLVNFQCKEDGIIAQAVDDSRVLLVSLEIGVEAFQEYRCDHPVTLGMDLTSLSKILRCGNNTDTLTLIADNTPDSIILLFEDTKKDRIAEYSLKLMDIDADFLKIEELQYDSTLSLPSSEFSKIVRDLSQLSDSINIMITKETIKFVADGDIGSGSVIIKPFVDMEHPETSIKLEMDQPVDLTFGAKYLLDIIKGSSLSDRVGIRLSSEAPALFQFDLKSGFLQFFLAPKFNDEE
binding result: binds
--
protein: PCNA-C22Y (natural protein, S. cerevisiae, biotinylated when bound to the SPR chip (site not stated)) MLEAKFEEASLFKRIIDGFKDYVQLVNFQCKEDGIIAQAVDDSRVLLVSLEIGVEAFQEYRCDHPVTLGMDLTSLSKILRCGNNTDTLTLIADNTPDSIILLFEDTKKDRIAEYSLKLMDIDADFLKIEELQYDSTLSLPSSEFSKIVRDLSQLSDSINIMITKETIKFVADGDIGSGSVIIKPFVDMEHPETSIKLEMDQPVDLTFGAKYLLDIIKGSSLSDRVGIRLSSEAPALFQFDLKSGFLQFFLAPKFNDEE
binding result: binds
--
protein: PCNA-E143K (natural protein, S. cerevisiae, biotinylated when bound to the SPR chip (site not stated)) MLEAKFEEASLFKRIIDGFKDCVQLVNFQCKEDGIIAQAVDDSRVLLVSLEIGVEAFQEYRCDHPVTLGMDLTSLSKILRCGNNTDTLTLIADNTPDSIILLFEDTKKDRIAEYSLKLMDIDADFLKIEELQYDSTLSLPSSKFSKIVRDLSQLSDSINIMITKETIKFVADGDIGSGSVIIKPFVDMEHPETSIKLEMDQPVDLTFGAKYLLDIIKGSSLSDRVGIRLSSEAPALFQFDLKSGFLQFFLAPKFNDEE
binding result: binds
--
protein: Wild-type PCNA (S. cerevisiae, encoded by POL30) (natural protein, biotinylated when bound to the SPR chip (site not stated)) MLEAKFEEASLFKRIIDGFKDCVQLVNFQCKEDGIIAQAVDDSRVLLVSLEIGVEAFQEYRCDHPVTLGMDLTSLSKILRCGNNTDTLTLIADNTPDSIILLFEDTKKDRIAEYSLKLMDIDADFLKIEELQYDSTLSLPSSEFSKIVRDLSQLSDSINIMITKETIKFVADGDIGSGSVIIKPFVDMEHPETSIKLEMDQPVDLTFGAKYLLDIIKGSSLSDRVGIRLSSEAPALFQFDLKSGFLQFFLAPKFNDEE
binding result: binds
--
protein: PCNA-F254L (natural protein, S. cerevisiae, biotinylated when bound to the SPR chip (site not stated)) MLEAKFEEASLFKRIIDGFKDCVQLVNFQCKEDGIIAQAVDDSRVLLVSLEIGVEAFQEYRCDHPVTLGMDLTSLSKILRCGNNTDTLTLIADNTPDSIILLFEDTKKDRIAEYSLKLMDIDADFLKIEELQYDSTLSLPSSEFSKIVRDLSQLSDSINIMITKETIKFVADGDIGSGSVIIKPFVDMEHPETSIKLEMDQPVDLTFGAKYLLDIIKGSSLSDRVGIRLSSEAPALFQFDLKSGFLQFFLAPKLNDEE
binding result: binds

In the following, a different protein is considered.
Name the recorded binding result for PCNA-K217E (natural protein, S. cerevisiae, biotinylated when bound to the SPR chip (site not stated)) MLEAKFEEASLFKRIIDGFKDCVQLVNFQCKEDGIIAQAVDDSRVLLVSLEIGVEAFQEYRCDHPVTLGMDLTSLSKILRCGNNTDTLTLIADNTPDSIILLFEDTKKDRIAEYSLKLMDIDADFLKIEELQYDSTLSLPSSEFSKIVRDLSQLSDSINIMITKETIKFVADGDIGSGSVIIKPFVDMEHPETSIKLEMDQPVDLTFGAKYLLDIIEGSSLSDRVGIRLSSEAPALFQFDLKSGFLQFFLAPKFNDEE . binds
